- PROCEDURE_TEXT: Plasma pharmacokinetics following a single intravenous and subcutaneous injection of a combination of formoterol and budesonide
- CONDITIONS_USED: female, Gottingen, minipig, in vivo, Plasma concentration of formoterol, SC5 0.4 μg/kg, combination, female 2-0623, 1.00 hr
TEST_READOUT: concentration at 1 hr (ng/mL)
The reply should be a number in ng/mL, with the unit left off.

Consider the compound COc1ccc(CC(C)NCC(O)c2ccc(O)c(NC=O)c2)cc1 (stereo not shown) [Formoterol, formoterol] and give its recorded concentration at 1 hr.
0.0628

====

- PROCEDURE_TEXT: Plasma pharmacokinetics following a single intravenous and subcutaneous injection of a combination of formoterol and budesonide
- CONDITIONS_USED: male, Gottingen, minipig, in vivo, Cmax, formoterol 0.4 μg/kg SC5 (5 sites), combination, male 1-0771
TEST_READOUT: Cmax (ng/mL)
The reply should be a number in ng/mL, with the unit left off.

Consider the molecule COc1ccc(CC(C)NCC(O)c2ccc(O)c(NC=O)c2)cc1 (stereo not shown) [Formoterol, formoterol] and give its recorded Cmax.
0.217

====

- PROCEDURE_TEXT: in vivo
- CONDITIONS_USED: female, Gottingen, minipig, in vivo, sc, 0.4 ug/kg, Tmax
TEST_READOUT: Tmax (min)
The reply should be a number in min, with the unit left off.

Consider the molecule OCc1cc(C(O)CNCCCCCCOCCCCc2ccccc2)ccc1O (racemic) [Salmeterol] and give its recorded Tmax.
2

====

- PROCEDURE_TEXT: Plasma pharmacokinetics following a single intravenous and subcutaneous injection of a combination of formoterol and budesonide
- CONDITIONS_USED: male, Gottingen, minipig, in vivo, Plasma concentration of formoterol, SC1 0.4 μg/kg, combination, male 1-0771, 1.00 hr
TEST_READOUT: concentration at 1 hr (ng/mL)
The reply should be a number in ng/mL, with the unit left off.

Consider the molecule COc1ccc(CC(C)NCC(O)c2ccc(O)c(NC=O)c2)cc1 (stereo not shown) and give its recorded concentration at 1 hr.
0.0833

====

- PROCEDURE_TEXT: Plasma pharmacokinetics following a single intravenous and subcutaneous injection of a combination of formoterol and budesonide
- CONDITIONS_USED: female, Gottingen, minipig, in vivo, Cmax, formoterol 0.4 μg/kg SC1 single site, combination, female 2-0623
TEST_READOUT: Cmax (ng/mL)
The reply should be a number in ng/mL, with the unit left off.

Consider the compound COc1ccc(CC(C)NCC(O)c2ccc(O)c(NC=O)c2)cc1 (stereo not shown) and give its recorded Cmax.
0.284

====

- PROCEDURE_TEXT: in vivo
- CONDITIONS_USED: female, Gottingen, minipig, in vivo, sc, 0.004 ug/kg, Cmax
TEST_READOUT: Cmax

Consider the compound OCc1cc(C(O)CNCCCCCCOCCCCc2ccccc2)ccc1O (racemic) and give its recorded Cmax.
3.08 pg/mL

====

- PROCEDURE_TEXT: Plasma pharmacokinetics following a single intravenous and subcutaneous injection of a combination of formoterol and budesonide
- CONDITIONS_USED: male, Gottingen, minipig, in vivo, Plasma concentration of formoterol, SC5 0.4 μg/kg, combination, male 1-0771, 4.00 hr
TEST_READOUT: concentration at 4 hr
A bare number is not enough; add the unit after it.

Consider the compound COc1ccc(CC(C)NCC(O)c2ccc(O)c(NC=O)c2)cc1 (stereo not shown) [Formoterol, formoterol] and give its recorded concentration at 4 hr.
0.0359 ng/mL

====

- PROCEDURE_TEXT: Plasma pharmacokinetics following a single intravenous and subcutaneous injection of a combination of formoterol and budesonide
- CONDITIONS_USED: male, Gottingen, minipig, in vivo, Plasma concentration of formoterol, SC1 0.4 μg/kg, combination, male 1-0771, 0.750 hr
TEST_READOUT: concentration at 0.75 hr

Consider the compound COc1ccc(CC(C)NCC(O)c2ccc(O)c(NC=O)c2)cc1 (stereo not shown) and give its recorded concentration at 0.75 hr.
0.079 ng/mL

====

- PROCEDURE_TEXT: Plasma pharmacokinetics following a single intravenous and subcutaneous injection of a combination of formoterol and budesonide
- CONDITIONS_USED: female, Gottingen, minipig, in vivo, iv, Plasma concentration of formoterol, IV 0.4 μg/kg, combination, female 2-0623, 0.500 hr
TEST_READOUT: concentration at 0.5 hr
A bare number is not enough; add the unit after it.

Consider the compound COc1ccc(CC(C)NCC(O)c2ccc(O)c(NC=O)c2)cc1 (stereo not shown) [Formoterol, formoterol] and give its recorded concentration at 0.5 hr.
0.0984 ng/mL

====

- PROCEDURE_TEXT: Plasma pharmacokinetics following a single intravenous and subcutaneous injection of a combination of formoterol and budesonide
- CONDITIONS_USED: female, Gottingen, minipig, in vivo, Plasma concentration of formoterol, SC1 0.4 μg/kg, combination, female 2-0623, 0.333 hr
TEST_READOUT: concentration at 0.333 hr (ng/mL)
The reply should be a number in ng/mL, with the unit left off.

Consider the compound COc1ccc(CC(C)NCC(O)c2ccc(O)c(NC=O)c2)cc1 (stereo not shown) and give its recorded concentration at 0.333 hr.
0.156

====

- PROCEDURE_TEXT: Plasma pharmacokinetics following a single intravenous and subcutaneous injection of a combination of formoterol and budesonide
- CONDITIONS_USED: male, Gottingen, minipig, in vivo, Plasma concentration of formoterol, SC1 0.4 μg/kg, combination, male 1-0771, 0 hr
TEST_READOUT: concentration at 0 hr (pg/mL)
The reply should be a number in pg/mL, with the unit left off.

Consider the compound COc1ccc(CC(C)NCC(O)c2ccc(O)c(NC=O)c2)cc1 (stereo not shown) [Formoterol, formoterol] and give its recorded concentration at 0 hr.
4.63

====

- PROCEDURE_TEXT: Plasma pharmacokinetics following a single intravenous and subcutaneous injection of a combination of formoterol and budesonide
- CONDITIONS_USED: male, Gottingen, minipig, in vivo, iv, Plasma concentration of formoterol, IV 0.4 μg/kg, combination, male 1-0771, 0.500 hr
TEST_READOUT: concentration at 0.5 hr (ng/mL)
The reply should be a number in ng/mL, with the unit left off.

Consider the molecule COc1ccc(CC(C)NCC(O)c2ccc(O)c(NC=O)c2)cc1 (stereo not shown) and give its recorded concentration at 0.5 hr.
0.057

====

- PROCEDURE_TEXT: Plasma pharmacokinetics following a single intravenous and subcutaneous injection of a combination of formoterol and budesonide
- CONDITIONS_USED: female, Gottingen, minipig, in vivo, Plasma concentration of formoterol, SC1 0.4 μg/kg, combination, female 2-0623, 0.0333 hr
TEST_READOUT: concentration at 0.0333 hr (ng/mL)
The reply should be a number in ng/mL, with the unit left off.

Consider the compound COc1ccc(CC(C)NCC(O)c2ccc(O)c(NC=O)c2)cc1 (stereo not shown) and give its recorded concentration at 0.0333 hr.
0.169

====

- PROCEDURE_TEXT: in vivo
- CONDITIONS_USED: female, Gottingen, minipig, in vivo, sc, 0.004 ug/kg, Tmax
TEST_READOUT: Tmax (h)
The reply should be a number in h, with the unit left off.

Consider the molecule OCc1cc(C(O)CNCCCCCCOCCCCc2ccccc2)ccc1O (racemic) and give its recorded Tmax.
1

====

- PROCEDURE_TEXT: Plasma pharmacokinetics following a single intravenous and subcutaneous injection of a combination of formoterol and budesonide
- CONDITIONS_USED: female, Gottingen, minipig, in vivo, iv, 0.4 ug/kg
TEST_READOUT: Vd (L/kg)
The reply should be a number in L/kg, with the unit left off.

Consider the molecule COc1ccc(CC(C)NCC(O)c2ccc(O)c(NC=O)c2)cc1 (stereo not shown) and give its recorded Vd.
3.17

====

- PROCEDURE_TEXT: in vivo
- CONDITIONS_USED: female, Gottingen, minipig, in vivo, sc, 4 ug/kg, t1/2
TEST_READOUT: half-life
A bare number is not enough; add the unit after it.

Consider the compound OCc1cc(C(O)CNCCCCCCOCCCCc2ccccc2)ccc1O (racemic) and give its recorded half-life.
6.02 h

====

- PROCEDURE_TEXT: Plasma pharmacokinetics following a single intravenous and subcutaneous injection of a combination of formoterol and budesonide
- CONDITIONS_USED: male, Gottingen, minipig, in vivo, Plasma concentration of formoterol, SC5 0.4 μg/kg, combination, male 1-0771, 0.0833 hr
TEST_READOUT: concentration at 0.0833 hr (ng/mL)
The reply should be a number in ng/mL, with the unit left off.

Consider the compound COc1ccc(CC(C)NCC(O)c2ccc(O)c(NC=O)c2)cc1 (stereo not shown) and give its recorded concentration at 0.0833 hr.
0.216

====

- PROCEDURE_TEXT: in vivo
- CONDITIONS_USED: male, Gottingen, minipig, in vivo, 0.4 ug/kg, F (bioavailability)
- Procedure: Salmeterol xinafoate was formulated in 5% PEG-400 in 0.9% saline, USP, at concentrations of 0.1, 1, 10, and 100 μg/mL. 1 male and 1 female non-naive Gottingen minipigs (18.4 to 19.5 kg at the time of the IV dose) were utilized. […] Plasma samples were analyzed for salmeterol using a qualified liquid chromatography/mass spectrometry/mass mass spectrometry (LC/MS/MS) method. The lower limit of quantitation (LLOQ) was 2.50 pg/mL. Samples were analyzed within a maximum of 14.0 days of collection. […]
TEST_READOUT: bioavailability (%)
The reply should be a number in %, with the unit left off.

Consider the compound OCc1cc(C(O)CNCCCCCCOCCCCc2ccccc2)ccc1O (racemic) [Salmeterol] and give its recorded bioavailability.
78.9
